IC50 for assorted compounds
# TARGET_OR_SYSTEM: Rat recombinant PDE10A (rPDE10A2) (Rattus norvegicus, UniProt Q9QYJ6)
# Construct: made in house; host or cells: Sf9 insect cells, baculovirus
# Sequence (Q9QYJ6 whole entry): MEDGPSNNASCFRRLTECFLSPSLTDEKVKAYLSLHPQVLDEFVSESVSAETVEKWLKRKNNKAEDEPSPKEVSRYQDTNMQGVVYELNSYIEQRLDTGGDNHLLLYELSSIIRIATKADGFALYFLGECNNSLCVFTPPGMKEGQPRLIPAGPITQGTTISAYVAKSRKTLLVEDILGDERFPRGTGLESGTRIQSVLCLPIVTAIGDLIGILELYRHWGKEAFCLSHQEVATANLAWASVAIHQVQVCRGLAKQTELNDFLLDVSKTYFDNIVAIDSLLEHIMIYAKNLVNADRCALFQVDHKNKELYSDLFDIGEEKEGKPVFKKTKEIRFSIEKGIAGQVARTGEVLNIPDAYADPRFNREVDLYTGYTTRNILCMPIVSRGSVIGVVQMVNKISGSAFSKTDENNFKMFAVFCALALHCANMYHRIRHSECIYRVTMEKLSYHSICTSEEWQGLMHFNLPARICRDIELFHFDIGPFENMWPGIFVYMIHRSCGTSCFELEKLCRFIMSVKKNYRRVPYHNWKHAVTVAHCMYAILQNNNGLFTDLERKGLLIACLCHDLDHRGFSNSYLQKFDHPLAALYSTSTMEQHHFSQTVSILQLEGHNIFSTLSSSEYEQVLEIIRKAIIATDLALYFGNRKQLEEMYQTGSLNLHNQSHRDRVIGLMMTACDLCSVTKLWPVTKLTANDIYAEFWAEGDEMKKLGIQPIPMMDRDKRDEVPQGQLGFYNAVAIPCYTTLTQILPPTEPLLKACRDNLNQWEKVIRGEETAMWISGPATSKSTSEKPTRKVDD
# EXPERIMENT_NOTES: In vitro assay PDE10A (SPA, 3H-cAMP)
# Assay type: biochemical
# TEST_CONDITIONS: pIC50 corresponds to the -log IC50 expressed in mol/L; read-out: PDE10A2 pIC50 (converted)
Quick reminder: number only, in nM, skip the unit.

Consider the following illustrative entries.
> print(dat)
                                   compound  quantitative.result
1  Cc1nc2c(N3CCOCC3)nccn2c1-c1cnn(Cc2ccccn2)c1 [compound 76]                  102
2  COCCc1ccc(-c2cnc3c(N4CCOCC4)nccn23)cn1 [compound 136]                  575

### Prompt Supply IC50 value. Item: c1cn2c(-c3ccc(N4CCNCC4)nc3)c(C3CC3)nc2c(N2CCOCC2)n1 [compound 87]
### Response 126
